Target: T1, human MIC-1 receptor (hGFRAL, GDNF family receptor alpha like), full length (human, UniProt Q6UXV0 19-394)
T1 sequence (looked up): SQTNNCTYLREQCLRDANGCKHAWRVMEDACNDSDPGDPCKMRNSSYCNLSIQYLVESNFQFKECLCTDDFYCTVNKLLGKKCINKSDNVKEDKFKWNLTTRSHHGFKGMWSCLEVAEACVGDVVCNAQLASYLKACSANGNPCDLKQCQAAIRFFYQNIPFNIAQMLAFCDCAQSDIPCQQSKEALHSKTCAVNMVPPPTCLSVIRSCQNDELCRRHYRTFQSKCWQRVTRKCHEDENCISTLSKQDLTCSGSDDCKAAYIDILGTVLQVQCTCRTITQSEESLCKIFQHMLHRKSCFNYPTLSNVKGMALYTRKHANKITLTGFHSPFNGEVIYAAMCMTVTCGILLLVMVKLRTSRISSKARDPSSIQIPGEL
Assay: cell-based or functional assay

[
  {
    "binder": "SEPATCGSETPGTSESATPESGPGTSTEPSEG-MIC-1, des-N3 (Cys mutation S(-27)C) (ligand, homodimer; no protractor) SEPATCGSETPGTSESATPESGPGTSTEPSEGARGDHCPLGPGRCCRLHTVRASLEDLGWADWVLSPREVQVTMCIGACPSQFRAANMHAQIKTSLHRLKPDTVPAPCCVPASYNPMVLIQKTDTGVSLQTYDDLLAKDCHCI",
    "unit-of-measurement": "pM",
    "Luciferase + 0.1% HSA NNDK EC50 (pM)": 45
  },
  {
    "binder": "Compound 04 (ligand, Cys-27 (residue 6 of SEQ ID NO: 291): S{Beta}-[2-[2-[[2-[2-[2-[[2-[2-[2-[[(4S)-4-carboxy-4-(13-carboxytridecanoylamino)butanoyl]amino]ethoxy]ethoxy]acetyl]amino]ethoxy]ethoxy]acetyl]amino]ethylamino]-2-oxoethyl]Cys (protractor of Example 10.3), homodimer, two protractors per dimer) SEPATCGSETPGTSESATPESGPGTSTEPSEGARGDHCPLGPGRCCRLHTVRASLEDLGWADWVLSPREVQVTMCIGACPSQFRAANMHAQIKTSLHRLKPDTVPAPCCVPASYNPMVLIQKTDTGVSLQTYDDLLAKDCHCI",
    "unit-of-measurement": "pM",
    "Luciferase + 0.1% HSA NNDK EC50 (pM)": 58
  },
  {
    "binder": "Compound 06 (ligand, Cys-25 (residue 8 of SEQ ID NO: 303): S{Beta}-[2-[2-[[2-[2-[2-[[2-[2-[2-[[(4S)-4-carboxy-4-(17-carboxyheptadecanoylamino)butanoyl]amino]ethoxy]ethoxy]acetyl]amino]ethoxy]ethoxy]acetyl]amino]ethylamino]-2-oxoethyl]Cys (protractor of Example 10.4), homodimer, two protractors per dimer) SEPATSGCETPGTSESATPESGPGTSTEPSEGARGDHCPLGPGRCCRLHTVRASLEDLGWADWVLSPREVQVTMCIGACPSQFRAANLHAQIKTSLHRLKPDTVPAPCCVPASYNPLVLIQKTDTGVSLQTYDDLLAKDCHCI",
    "unit-of-measurement": "pM",
    "Luciferase + 0.1% HSA NNDK EC50 (pM)": 61
  },
  {
    "binder": "Compound 21 (ligand, Cys-29 (residue 4 of SEQ ID NO: 288): S{Beta}-[2-[2-[[2-[2-[2-[[2-[2-[2-[[(4S)-4-carboxy-4-[16-(1H-tetrazol-5-yl)hexadecanoylamino]butanoyl]amino]ethoxy]ethoxy]acetyl]amino]ethoxy]ethoxy]acetyl]amino]ethylamino]-2-oxoethyl]Cys (protractor of Example 10.10), homodimer, two protractors per dimer) SEPCTSGSETPGTSESATPESGPGTSTEPSEGARGDHCPLGPGRCCRLHTVRASLEDLGWADWVLSPREVQVTMCIGACPSQFRAANMHAQIKTSLHRLKPDTVPAPCCVPASYNPMVLIQKTDTGVSLQTYDDLLAKDCHCI",
    "unit-of-measurement": "pM",
    "Luciferase + 0.1% HSA NNDK EC50 (pM)": 56
  }
]
